Hey, just so you know, these numbers are from ChEMBL document CHEMBL1201862.

Tested on: HT-29
assay.summary: NCI tumour cell line growth inhibition, 48 h
Activity calls are given as the source filed them. Cut-off read from the data, not from the text of the source: active = GI50 up to about 1.1 µM and inactive = higher.
Classes used: active, inactive

- molecule: "CC(=O)C(C)C(=O)N1C(=O)N(C)C2(C)N(C)C(=O)NC12C (stereo not given)"
  class: "inactive"
- molecule: "CSCCCNC(=O)c1csc([C@@H](CSC)NC(=O)CCNC(=O)[C@@H](NC(=O)OCC(Br)(Br)Br)C(C)O)n1 (stereo not given in full)"
  class: "inactive"
- molecule: "Clc1ccc(C(SCc2ccccc2)SCc2ccccc2)cc1"
  class: "inactive"
- molecule: "COc1ccc(/C=N/Nc2nnc3c(n2)c2ccccc2c2nn(-c4ccccc4Cl)nc23)cc1"
  class: "inactive"
- molecule: "CC12OC(=O)[C@@]3(O)CCC4C(C[C@H]5O[C@]56CC=CC(=O)[C@]46C)C45OC[C@H]6C(=O)O[C@@H]1C[C@@]6(C)[C@H](C4=O)C23O5 (stereo not given in full)"
  class: "inactive"
- molecule: "O=S(=O)(c1ccccc1)[C@H]1[C@@H]2O[C@@H]2C[C@@H]1O"
  class: "inactive"
- molecule: "CC1(C)O[C@@H](CC/C=C/CO)[C@H](CC/C=C/CO)O1"
  class: "inactive"
- molecule: "CC(=O)c1ccc(NC(=O)COC(=O)c2cccc3c(=O)c4ccccc4[nH]c23)cc1"
  class: "inactive"
- molecule: "CCN(CC)c1ccc2cc3ccc(N(CC)CC)cc3[o+]c2c1"
  class: "active"
- molecule: "Cc1nn(-c2ccccc2)c(C)c1/C=N/N=C1\\S/C(=C\\c2ccc(Cl)cc2)C(=O)N1c1ccccc1"
  class: "inactive"
- molecule: "S=c1[nH]nc(Cn2c3ccc(Br)cc3c3nc4ccccc4nc32)o1"
  class: "inactive"
- molecule: "C=CCCC(=O)C(=[N+]=[N-])C(=O)CCC(=O)c1ccccc1"
  class: "inactive"
- molecule: "CC(=O)Oc1ccc2c(-c3ccccc3)c(Oc3ccc(Cl)cc3)c(=O)oc2c1"
  class: "inactive"
- molecule: "Nc1ccccc1/N=C/c1cc2cc([N+](=O)[O-])ccc2s1"
  class: "inactive"
- molecule: "COC1OC(CBr)C(OC(=O)c2ccccc2)C(O)C1Br (stereo not given)"
  class: "inactive"
- molecule: "COC(=O)C(=O)C1(CCC(C)=O)c2ccccc2-c2c(C)ccc(C)c21 (stereo not given)"
  class: "inactive"
- molecule: "COc1ccccc1Cc1ccc(C2C=CC3(CC(=O)C=C3C)C(=O)C2)o1 (stereo not given)"
  class: "inactive"
- molecule: "COc1ccccc1Cc1nc(-c2ccccc2)nn(C2OC(COC(C)=O)C(OC(C)=O)C(OC(C)=O)C2OC(C)=O)c1=S (stereo not given)"
  class: "inactive"
- molecule: "FC(F)(Sc1ccccc1)c1nc2ccccc2o1"
  class: "inactive"
- molecule: "Cc1cc2c(c(C#N)c1C)NC(=O)C(CC(=O)O)C2=O (stereo not given)"
  class: "inactive"

----------
Below is a list of entries, each paired with its recorded GI50 value.
System: SW-620
assay.summary: NCI tumour cell line growth inhibition, 48 h
Calls of active or inactive are those of the source. Rule as the data show it: active = GI50 up to about 1.1 µM and inactive = higher.

- chem.smiles: "Cn1c(=O)cc(Nc2ccc(N)cc2)[nH]c1=O"
  GI50: "> 100 µM (inactive)"
- chem.smiles: "Cc1cc(NC(=S)SCc2ccc(F)cc2)c([N+](=O)[O-])cc1C"
  GI50: "27.5 µM (inactive)"
- chem.smiles: "N#CCCN(CCCN(CCCN(C(=O)Nc1ccccc1)c1ccccc1)C(=O)Nc1ccccc1)C(=O)Nc1ccccc1"
  GI50: "> 8.75 µM (inactive)"
- chem.smiles: "O=[N+]([O-])c1cc(C(F)(F)F)ccc1S(=O)(=O)N[C@@H]1CCCC[C@H]1NS(=O)(=O)c1ccc(C(F)(F)F)cc1[N+](=O)[O-]"
  GI50: "3.78 µM (inactive)"
- chem.smiles: "CC(=O)Nc1ccc2cc(C#N)c(=O)[nH]c2n1"
  GI50: "> 100 µM (inactive)"
- chem.smiles: "O=C1C[C@H](COCc2ccccc2)NC(=O)C[C@H](COCc2ccccc2)NC(=O)C[C@H](COCc2ccccc2)N1"
  GI50: "> 100 µM (inactive)"
- chem.smiles: "CC(=O)c1ccc(NC(=O)COC(=O)c2cccc3c(=O)c4ccccc4[nH]c23)cc1"
  GI50: "52.8 µM (inactive)"
- chem.smiles: "O=c1c(Cl)nsnc1Cl"
  GI50: "3.43 µM (inactive)"
- chem.smiles: "COc1c2cc([N+](=O)[O-])cc1CN(C(=O)C(F)(F)F)CCOCCN(C(=O)C(F)(F)F)C2"
  GI50: "> 100 µM (inactive)"
